Values were extracted from patent US3968219A.

system: stripped skin on the backs of volunteers; test: vasoconstriction test (topical anti-inflammatory activity on stripped, hyperemic skin); type: in vivo; settings: 0.1% ointment, 50 mg topical, 4 hours
Measured vasoconstriction, colour value (normal skin = 100, untreated stripped skin = 0), listed per entry for reference.
Number only, no unit.

Observe how each entry below is paired with its result.
>>> observed_result("CCCCC1C(=O)N(c2ccccc2)N(c2ccc(OC(=O)CCCCCC(=O)Oc3ccc(N4C(=O)C(CCCC)C(=O)N4c4ccccc4)cc3)cc2)C1=O (stereo not shown) [IV]")
65
>>> observed_result("CCCCC1C(=O)N(c2ccccc2)N(c2ccc(O)cc2)C1=O (stereo not shown) [I]")
35
>>> observed_result("CCCCC1C(=O)N(c2ccccc2)N(c2ccc(OC(=O)CCCCC(=O)Oc3ccc(N4C(=O)C(CCCC)C(=O)N4c4ccccc4)cc3)cc2)C1=O (stereo not shown) [III]")
72

Alright, here's another compound for you.
Please look up its vasoconstriction, colour value (normal skin = 100, untreated stripped skin = 0): C[C@@H]1C[C@H]2[C@@H]3C[C@H](F)C4=CC(=O)C=C[C@]4(C)[C@H]3[C@@H](O)C[C@]2(C)[C@H]1C(=O)CO [II] 75

====

test system: stripped skin on the backs of volunteers; test: vasoconstriction test (topical anti-inflammatory activity on stripped, hyperemic skin); assay type: in vivo; conditions: 0.1% ointment, 50 mg topical, 8 hours
Test Readout: vasoconstriction, colour value (normal skin = 100, untreated stripped skin = 0)
Please reply with the value in numeric form only.

>>> observed_result("CCCCC1C(=O)N(c2ccccc2)N(c2ccc(OC(=O)CCCCCC(=O)Oc3ccc(N4C(=O)C(CCCC)C(=O)N4c4ccccc4)cc3)cc2)C1=O (stereo not shown)")
67
>>> observed_result("CCCCC1C(=O)N(c2ccccc2)N(c2ccc(O)cc2)C1=O (stereo not shown)")
33
>>> observed_result("C[C@@H]1C[C@H]2[C@@H]3C[C@H](F)C4=CC(=O)C=C[C@]4(C)[C@H]3[C@@H](O)C[C@]2(C)[C@H]1C(=O)CO")
85

Which vasoconstriction, colour value (normal skin = 100, untreated stripped skin = 0) is reported for this compound? CCCCC1C(=O)N(c2ccccc2)N(c2ccc(OC(=O)CCCCC(=O)Oc3ccc(N4C(=O)C(CCCC)C(=O)N4c4ccccc4)cc3)cc2)C1=O (stereo not shown) 78

====

test system: stripped skin on the backs of volunteers; assay: vasoconstriction test (topical anti-inflammatory activity on stripped, hyperemic skin); assay type: in vivo; conditions: 0.01% ointment, 50 mg topical, 8 hours
vasoconstriction, colour value (normal skin = 100, untreated stripped skin = 0) listing for selected compounds.
Response field accepts a number only; no unit should be typed.

>>> observed_result("CCCCC1C(=O)N(c2ccccc2)N(c2ccc(OC(=O)CCCCCC(=O)Oc3ccc(N4C(=O)C(CCCC)C(=O)N4c4ccccc4)cc3)cc2)C1=O (stereo not shown)")
49
>>> observed_result("CCCCC1C(=O)N(c2ccccc2)N(c2ccc(O)cc2)C1=O (stereo not shown)")
24
>>> observed_result("C[C@@H]1C[C@H]2[C@@H]3C[C@H](F)C4=CC(=O)C=C[C@]4(C)[C@H]3[C@@H](O)C[C@]2(C)[C@H]1C(=O)CO")
85

Next item in the queue.
State the recorded vasoconstriction, colour value (normal skin = 100, untreated stripped skin = 0) for this entry: CCCCC1C(=O)N(c2ccccc2)N(c2ccc(OC(=O)CCCCC(=O)Oc3ccc(N4C(=O)C(CCCC)C(=O)N4c4ccccc4)cc3)cc2)C1=O (stereo not shown) 70

====

test system: stripped skin on the backs of volunteers; assay: vasoconstriction test (topical anti-inflammatory activity on stripped, hyperemic skin); assay type: in vivo; details: 0.01% ointment, 50 mg topical, 4 hours
Listed here: items and their measured vasoconstriction, colour value (normal skin = 100, untreated stripped skin = 0).

Sample answers from the record:
>>> observed_result("C[C@@H]1C[C@H]2[C@@H]3C[C@H](F)C4=CC(=O)C=C[C@]4(C)[C@H]3[C@@H](O)C[C@]2(C)[C@H]1C(=O)CO")
65
>>> observed_result("CCCCC1C(=O)N(c2ccccc2)N(c2ccc(OC(=O)CCCCC(=O)Oc3ccc(N4C(=O)C(CCCC)C(=O)N4c4ccccc4)cc3)cc2)C1=O (stereo not shown)")
66
>>> observed_result("CCCCC1C(=O)N(c2ccccc2)N(c2ccc(O)cc2)C1=O (stereo not shown)")
25

What does the record list as vasoconstriction, colour value (normal skin = 100, untreated stripped skin = 0) for CCCCC1C(=O)N(c2ccccc2)N(c2ccc(OC(=O)CCCCCC(=O)Oc3ccc(N4C(=O)C(CCCC)C(=O)N4c4ccccc4)cc3)cc2)C1=O (stereo not shown) ? 44
